- Method: protein stability index of a GFP-peptide fusion (yeast GPS) (PSI 1-4); higher = more stable; sorted into four equal gates, so the index is relative within each strain
- Study conditions: doa10∆
Reported property: protein stability index
Answer as a number with no unit attached.

Example cases with answers are listed next.
[[record]]
sequence_data = "QLPVGFKNMGNTCYLNA [UBP6]"
reported_property = "protein stability index"
experimental_value = 2.16

[[record]]
sequence_data = "LYQLVDIRDSSCQGNVI [YMR129W/POM152]"
reported_property = "protein stability index"
experimental_value = 3.02

[[record]]
sequence_data = "TGNTTSKSAFSFGTANT [YOR098C/NUP1]"
reported_property = "protein stability index"
experimental_value = 2.5

[[record]]
sequence_data = "EAAKLLVDSLATFTSIE [RPN7]"
reported_property = "protein stability index"
experimental_value = 3.24

[[record]]
sequence_data = "SLLDAEEERRKKRESGV [SNF2]"
reported_property = "protein stability index"
experimental_value = 3.47

[[record]]
sequence_data = "LVESVDRFKPNLDIAKD [MED4]"
reported_property = "protein stability index"
experimental_value = 3.37

[[record]]
sequence_data = "LPTNPTLDKPNAEATKE [CSE2]"
reported_property = "protein stability index"
experimental_value = 2.91

[[record]]
sequence_data = "WYKVAKNVGNKSPEQCI [SWI3]"
reported_property = "protein stability index"
experimental_value = 2.98


Returns the measured protein stability index for the input sequence. Input: EVNREEAIGFIRGSNKF [SMC3]
2.84

Recorded protein stability index for GPGFKFVDLNEKELQNE [SRB4] , please?
2.64

What value of protein stability index has been reported for the following sequence? EISRLKTSLSIKVENLN [SMC2]
2.76

Quick check: protein stability index of NKLTILGRDYPIEVDEE [IRR1] ?
2.28

Which value of protein stability index has been reported for GLVDENKVEAFKSLYTF [YAR002W/NUP60] in the records?
3.01

Fill in: protein stability index of LDYQIGNSESKVEKGVN [LIN1] is ___
3.12

State the recorded protein stability index for this entry: TFGINLIYVNPFMLQWG [FAS1]
2.22

Using the record for SGSAGANPAGASQPEPT [YJL041W/NSP1] , report its protein stability index.
2.9

May I ask what protein stability index has been recorded for QDEEQTEHLTELSDNEE [YCG1] ?
3.29

What value of protein stability index has been reported for the following sequence? TDSDFAKYHAKLNKKLQ [SRP68]
2.97

# lookup: protein stability index of LNFYITNVPKAKKRKTL [SIR3]
1.97

Tell me the measured protein stability index of SIDCLLILILVISFGQP [SWI1] , please.
1.85

# query: protein stability index of entry PDEAIEKVFNAYPAARE [FAS1]
2.94

Query (sequence): AEDVALNEQVKKFFLNN [NAS6] ; field requested: protein stability index
2.12

Tell me the measured protein stability index of IYDDWLDRISSYTAFSR [PRP8] , please.
2.16

What protein stability index value was documented for this sequence, LQNSERDVELSSDELKV [SMC4] ?
2.84

Suppose we examine the sequence TKCSTVVKASELDQFWQ [SRP14] ; what protein stability index value has been reported?
2.17

// protein stability index lookup, key: TSIEKSSEILSYLSNSL [YML103C/NUP188]
2.21

Can you look up the measured protein stability index of MVMAGSKGSFINIAQMS [RPO21] for me?
1.43
